systemName: Tyrosine-protein kinase HCK (Homo sapiens) (UniProt P08631)
Sequence (P08631 whole entry, looked up): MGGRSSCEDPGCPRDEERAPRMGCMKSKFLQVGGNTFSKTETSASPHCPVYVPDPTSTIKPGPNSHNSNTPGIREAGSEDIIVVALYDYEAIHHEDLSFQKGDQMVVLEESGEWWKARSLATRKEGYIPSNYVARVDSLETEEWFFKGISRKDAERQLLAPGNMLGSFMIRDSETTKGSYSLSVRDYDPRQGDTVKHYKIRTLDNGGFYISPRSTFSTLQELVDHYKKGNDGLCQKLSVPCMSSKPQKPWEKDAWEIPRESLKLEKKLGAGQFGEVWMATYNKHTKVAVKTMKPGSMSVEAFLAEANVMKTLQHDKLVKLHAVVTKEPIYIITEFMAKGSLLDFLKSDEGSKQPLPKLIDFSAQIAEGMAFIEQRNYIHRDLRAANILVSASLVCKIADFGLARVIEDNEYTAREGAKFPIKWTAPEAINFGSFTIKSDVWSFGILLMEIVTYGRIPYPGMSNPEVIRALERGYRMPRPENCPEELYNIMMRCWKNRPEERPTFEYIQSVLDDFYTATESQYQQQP
methodDescription: inhibitors of Nef-activated human Hck kinase, primary screen, biochemical, Z-Lyte FRET, 384-well, Hck-YEEI (AID 463187)
recordedConditions: Recombinant Hck-YEEI plus Nef, Z-Lyte FRET kinase assay; at 20 µM
Hit rate of the full screen: of about 220,000 compounds, about 1,500 (0.68%) were called active.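 Rule for the calls: active = Hck-Nef kinase inhibition above about 50% (limit read from the data); inactive = inhibition below that limit.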 Only a selection was taken, and actives are over-represented in it overall.
Please answer using one outcome listed in active, inactive

The following compounds have reported results that may help.
{"columns": ["compound", "systemName", "assignedCategory"],
 "data": [
  ["Cc1cccc(N2C(=O)NC(=O)/C(=C\\c3cnn(-c4ccccc4)c3)C2=O)c1", "Tyrosine-protein kinase HCK (Homo sapiens) (UniProt P08631)", "inactive"],
  ["COc1cccc(N2C(=O)NC(=O)/C(=C\\c3ccc([N+](=O)[O-])s3)C2=O)c1", "Tyrosine-protein kinase HCK (Homo sapiens) (UniProt P08631)", "active"],
  ["Cc1cc(/C=C2/C(=O)NC(=O)N(Cc3ccco3)C2=O)c(C)n1-c1ccc(C(=O)O)cc1", "Tyrosine-protein kinase HCK (Homo sapiens) (UniProt P08631)", "inactive"],
  ["CC1=C(C(=O)Nc2ccccc2)S(=O)(=O)CCO1", "Tyrosine-protein kinase HCK (Homo sapiens) (UniProt P08631)", "inactive"],
  ["CCOC(=O)c1c(N)n(CCN2CCOCC2)c2nc3ccccc3nc12", "Tyrosine-protein kinase HCK (Homo sapiens) (UniProt P08631)", "inactive"],
  ["CSc1nc2ccc(C)cc2c(=O)n1-c1cccnc1", "Tyrosine-protein kinase HCK (Homo sapiens) (UniProt P08631)", "inactive"]
]}

Ask | Tell me the recorded outcome of this test for Cc1cccc(NC(=O)OC2CN3CCC2CC3)c1 (stereo not drawn) .
Reply | inactive

Ask | Query O=C(N/N=C/c1c(O)n(Cc2ccccc2)c(=O)[nH]c1=O)c1ccccc1 next
Reply | inactive

Provenance of the data: PubChem BioAssay AID463187
